These data points were gathered from patent US20230330254A1.

Molecular target: full-length human GLP1R on HEK293/CRE-Luc/hGLP1R cells (human, UniProt P43220 24-463)
Assay: cell-based or functional assay
attribute.measured: CRE-luc Relative Potency (% P8 EC50) (%)
// return numeric value only (unit: %, not printed)

COMP Anti-GLP1R mAb1 conjugated to LP3 (antibody, human IgG4 S228P, kappa, V domains shown, azido-PEG3-amine on the Gln of the N-terminal Q-tag LLQGSG, clicked to LP3 (DIBAC-suc-PEG12-P9)) VH: QVTLKESGPGILQPSQTLSLTCSFSGFSLSTSGTGVGWIRQPSGKGLEWLSHIWWDDVKRYNPALKSRLTISRDTSYSQVFLRIASVDTADTATYYCARILDGTGPMDYWGQGTSVTVSS VL: QIVLTQSPAIMSASPGEKVTMTCSASSRVTYMHWYQQRSGTSPKRWIYDTSKLASGVPARFSGSGSGTSYSLTISSMEAEDAATYYCQQWGNNPQYTFGGGTRLEIKR    62.1
COMP Anti-GLP1R mAb1 conjugated to LP4 (antibody, human IgG4 S228P, kappa, V domains shown, azido-PEG3-amine on the Gln of the N-terminal Q-tag LLQGSG, clicked to LP4 (DIBAC-suc-PEG24-P9)) VH: QVTLKESGPGILQPSQTLSLTCSFSGFSLSTSGTGVGWIRQPSGKGLEWLSHIWWDDVKRYNPALKSRLTISRDTSYSQVFLRIASVDTADTATYYCARILDGTGPMDYWGQGTSVTVSS VL: QIVLTQSPAIMSASPGEKVTMTCSASSRVTYMHWYQQRSGTSPKRWIYDTSKLASGVPARFSGSGSGTSYSLTISSMEAEDAATYYCQQWGNNPQYTFGGGTRLEIKR    55.3

QUERY: Sample COMP Anti-GLP1R mAb1 conjugated to LP1 (antibody, human IgG4 S228P, kappa, V domains shown, azido-PEG3-amine on the Gln of the N-terminal Q-tag LLQGSG, clicked to LP1 (DIBAC-suc-PEG4-P9)) VH: QVTLKESGPGILQPSQTLSLTCSFSGFSLSTSGTGVGWIRQPSGKGLEWLSHIWWDDVKRYNPALKSRLTISRDTSYSQVFLRIASVDTADTATYYCARILDGTGPMDYWGQGTSVTVSS VL: QIVLTQSPAIMSASPGEKVTMTCSASSRVTYMHWYQQRSGTSPKRWIYDTSKLASGVPARFSGSGSGTSYSLTISSMEAEDAATYYCQQWGNNPQYTFGGGTRLEIKR — what was its CRE-luc Relative Potency (% P8 EC50)?
RESULT: 96.7

QUERY: Sample COMP Anti-GLP1R mAb1 conjugated to LP2 (antibody, human IgG4 S228P, kappa, V domains shown, azido-PEG3-amine on the Gln of the N-terminal Q-tag LLQGSG, clicked to LP2 (DIBAC-suc-PEG8-P9)) VH: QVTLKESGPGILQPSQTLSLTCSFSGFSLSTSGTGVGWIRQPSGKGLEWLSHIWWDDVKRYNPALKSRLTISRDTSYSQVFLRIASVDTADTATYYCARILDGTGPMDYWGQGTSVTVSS VL: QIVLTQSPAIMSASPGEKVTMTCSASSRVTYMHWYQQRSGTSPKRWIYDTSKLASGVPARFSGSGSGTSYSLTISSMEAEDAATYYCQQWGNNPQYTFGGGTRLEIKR — what was its CRE-luc Relative Potency (% P8 EC50)?
RESULT: 126
